- Assay: The drug is tested on WLS-069 corresponding to human gut metagenome with ENA study accession number: PRJEB37062 and ENA sample accession number: ERS12561748 for biotransformation under anaerobic condition. The drug concentrations were measured over 9 timepoints collected between 0 and 24 hours of incubation by liquid-chromatography-coupled mass spectrometry (LC–MS); also: call rule not given here
- Assay Context: 2 µM

>  <Molecule>
CN1CCc2cccc3c2[C@H]1Cc1ccc(O)c(O)c1-3 [APOMORPHINE]

>  <Bacterial Biotransformation>
Compound NOT metabolized

$$$$
>  <Molecule>
COc1ccccc1OCC(O)COC(N)=O (centres undefined) [METHOCARBAMOL]

>  <Bacterial Biotransformation>
Compound NOT metabolized

$$$$
>  <Molecule>
C[C@@H]1CC[C@H]2[C@@H](C)C(=O)O[C@@H]3O[C@@]4(C)CC[C@@H]1[C@]32OO4 [ARTEMISININ]

>  <Bacterial Biotransformation>
Compound metabolized

$$$$
>  <Molecule>
C#C[C@]1(O)CC[C@H]2[C@@H]3CCC4=CC(=O)CC[C@@H]4[C@H]3CC[C@@]21CC [LEVONORGESTREL]

>  <Bacterial Biotransformation>
Compound metabolized

$$$$

====

- Assay Context: human gut metagenome, 24 h, 2 µM

>  <Molecule>
CCC(=O)NCC[C@@H]1CCc2ccc3c(c21)CCO3

>  <Bacterial Biotransformation>
Compound metabolized

$$$$
>  <Molecule>
CC(C)NCC(O)c1ccc(NS(C)(=O)=O)cc1 (centres undefined)

>  <Bacterial Biotransformation>
Compound NOT metabolized

$$$$
>  <Molecule>
CC(C)(C(=O)O)c1ccc(C(O)CCCN2CCC(C(O)(c3ccccc3)c3ccccc3)CC2)cc1 (centres undefined) [FEXOFENADINE]

>  <Bacterial Biotransformation>
Compound NOT metabolized

$$$$
>  <Molecule>
CCN1CCCC1CNC(=O)c1cc(S(N)(=O)=O)ccc1OC (centres undefined) [SULPIRIDE]

>  <Bacterial Biotransformation>
Compound NOT metabolized

$$$$
>  <Molecule>
CN1CCN(CC/C=C2/c3ccccc3Sc3ccc(S(=O)(=O)N(C)C)cc32)CC1

>  <Bacterial Biotransformation>
Compound metabolized

$$$$
>  <Molecule>
CCc1nc(N)nc(N)c1-c1ccc(Cl)cc1

>  <Bacterial Biotransformation>
Compound NOT metabolized

$$$$
>  <Molecule>
Clc1ccc(Cn2c(CN3CCCC3)nc3ccccc32)cc1

>  <Bacterial Biotransformation>
Compound metabolized

$$$$
>  <Molecule>
CO[C@]12C[C@@H](COC(=O)c3cncc(Br)c3)CN(C)[C@@H]1Cc1cn(C)c3cccc2c13

>  <Bacterial Biotransformation>
Compound NOT metabolized

$$$$
>  <Molecule>
COC1=CC(=O)C[C@@H](C)[C@]12Oc1c(Cl)c(OC)cc(OC)c1C2=O

>  <Bacterial Biotransformation>
Compound NOT metabolized

$$$$

====

- Assay Context: human gut metagenome, 24 h, 2 µM
Property Name: Bacterial Biotransformation

>  <Compound>
COc1ccccc1OCC(O)CN1CCN(CC(=O)Nc2c(C)cccc2C)CC1 (stereo not drawn) [RANOLAZINE]

>  <Data Value>
Compound NOT metabolized

$$$$
>  <Compound>
CN(C)CCC=C1c2ccccc2C=Cc2ccccc21 [CYCLOBENZAPRINE]

>  <Data Value>
Compound metabolized

$$$$
>  <Compound>
CC(C)c1nc(CN(C)C(=O)N[C@H](C(=O)N[C@@H](Cc2ccccc2)C[C@H](O)[C@H](Cc2ccccc2)NC(=O)OCc2cncs2)C(C)C)cs1 [RITONAVIR]

>  <Data Value>
Compound metabolized

$$$$
>  <Compound>
OC(Cn1cncn1)(Cn1cncn1)c1ccc(F)cc1F [FLUCONAZOLE]

>  <Data Value>
Compound metabolized

$$$$
>  <Compound>
CC(C(=O)O)c1ccc2c(c1)Cc1cccnc1O2 (stereo not drawn) [PRANOPROFEN]

>  <Data Value>
Compound metabolized

$$$$
>  <Compound>
COc1c(C)c2c(c(O)c1C/C=C(\C)CCC(=O)OCCN1CCOCC1)C(=O)OC2 [MYCOPHENOLATE MOFETIL]

>  <Data Value>
Compound metabolized

$$$$
>  <Compound>
OC(CCN1CCCCC1)(c1ccccc1)C1CCCCC1 (stereo not drawn) [TRIHEXYPHENIDYL]

>  <Data Value>
Compound metabolized

$$$$
>  <Compound>
CCN(CC)CCOCCOC(=O)C1(c2ccccc2)CCCC1.O=C(O)CC(O)(CC(=O)O)C(=O)O [CARBETAPENTANE CITRATE]

>  <Data Value>
Compound metabolized

$$$$
>  <Compound>
CCc1nc(N)nc(N)c1-c1ccc(Cl)cc1 [PYRIMETHAMINE]

>  <Data Value>
Compound metabolized

$$$$
>  <Compound>
Cc1nc2n(c(=O)c1CCN1CCC(c3noc4cc(F)ccc34)CC1)CCCC2O (stereo not drawn) [PALIPERIDONE]

>  <Data Value>
Compound metabolized

$$$$
>  <Compound>
COc1ccccc1OCC(O)COC(N)=O (stereo not drawn) [METHOCARBAMOL]

>  <Data Value>
Compound NOT metabolized

$$$$
>  <Compound>
Clc1ccc(Cn2c(CN3CCCC3)nc3ccccc32)cc1 [CLEMIZOLE]

>  <Data Value>
Compound metabolized

$$$$
>  <Compound>
Cc1ccc(-c2cc(C(F)(F)F)nn2-c2ccc(S(N)(=O)=O)cc2)cc1 [CELECOXIB]

>  <Data Value>
Compound metabolized

$$$$
>  <Compound>
C#C[C@]1(O)CC[C@H]2[C@@H]3CCC4=Cc5oncc5C[C@]4(C)[C@H]3CC[C@@]21C [DANAZOL]

>  <Data Value>
Compound metabolized

$$$$
>  <Compound>
CCc1nn(CCCN2CCN(c3cccc(Cl)c3)CC2)c(=O)n1CCOc1ccccc1 [NEFAZODONE]

>  <Data Value>
Compound metabolized

$$$$
>  <Compound>
CCC1(c2ccc(N)cc2)CCC(=O)NC1=O (stereo not drawn) [AMINOGLUTETHIMIDE]

>  <Data Value>
Compound NOT metabolized

$$$$
>  <Compound>
CC(CN(C)C)CN1c2ccccc2CCc2ccccc21.O=C(O)/C=C\C(=O)O (stereo not drawn) [TRIMIPRAMINE MALEATE]

>  <Data Value>
Compound metabolized

$$$$
>  <Compound>
CCN(CC)C(C)CN1c2ccccc2Sc2ccccc21 (stereo not drawn) [ETHOPROPAZINE]

>  <Data Value>
Compound metabolized

$$$$
